- ASSAYED SYSTEM: CYP3A4 (Homo sapiens, UniProt P08684)
- Sequence (P08684 whole entry): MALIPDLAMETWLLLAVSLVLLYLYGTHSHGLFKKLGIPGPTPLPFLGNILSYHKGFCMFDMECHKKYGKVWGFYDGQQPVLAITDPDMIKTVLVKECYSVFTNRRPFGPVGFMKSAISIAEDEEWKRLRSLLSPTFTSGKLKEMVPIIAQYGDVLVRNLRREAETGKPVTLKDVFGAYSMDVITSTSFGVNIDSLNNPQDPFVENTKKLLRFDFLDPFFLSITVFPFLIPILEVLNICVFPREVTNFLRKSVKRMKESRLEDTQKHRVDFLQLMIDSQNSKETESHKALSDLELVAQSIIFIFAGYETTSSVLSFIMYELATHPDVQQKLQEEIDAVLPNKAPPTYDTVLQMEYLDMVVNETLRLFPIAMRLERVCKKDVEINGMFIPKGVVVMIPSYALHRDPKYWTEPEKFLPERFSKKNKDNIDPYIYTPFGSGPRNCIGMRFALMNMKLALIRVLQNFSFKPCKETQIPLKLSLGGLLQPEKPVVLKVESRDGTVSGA
- TEST NAME: Inhibition of human CYP3A4 assessed as ratio of IC50 in absence of NADPH to IC50 for presence of NADPH using 7-benzyloxyquinoline as substrate after 30 mins
PROPERTY MEASURED: IC50 shift at 0.5 h

Input `NNC(=O)c1ccncc1` . Output IC50 shift at 0.5 h: > 5

Looking up `O=C1CCc2cc(OCCCCc3nnnn3C3CCCCC3)ccc2N1` , I see its IC50 shift at 0.5 h listed as 2

So, `CN1CCC[C@@H]1CCO[C@](C)(c1ccccc1)c1ccc(Cl)cc1` ? Its IC50 shift at 0.5 h was > 5

Measured IC50 shift at 0.5 h, `CCOC(=O)n1ccn(C)c1=S` : > 5
